Test system: EGFR
Test: Western Blotting, EGFR level
Type: cell-based
Conditions: human liver cancer cells, Lewis lung cancer cells and other cancer cell lines and tumor tissues, read-out: Effective concentration (IC50) for inhibition of EGFR
pIC50: −log10 of the molar value.
Assign pIC50 to each entry below.

Consider the worked cases shown below.
compound	pIC50
CCNC(=O)CCC(NC(=O)c1cc2cc([N+](=O)[O-])ccc2oc1=O)C(=O)OCC (stereo in doubt)	> 4.00
CCNC(=O)CCC(NC(=O)c1cc2cc(F)ccc2oc1=O)C(=O)OCC (stereo in doubt)	> 3.96
CCNC(=O)CC[C@@H](NC(=O)c1cc2cc(Cl)cc(Cl)c2oc1=O)C(=O)OCC	> 4.00
CCNC(=O)CCC(NC(=O)c1cc2ccccc2oc1=O)C(=O)OC (centres unmarked)	> 3.90

Parameter requested: pIC50. Apply to each item below.
1. CCNC(=O)CC[C@@H](NC(=O)c1cc2cc(Br)ccc2oc1=O)C(=O)OCC
2. CCNC(=O)CCC(NC(=O)c1cc2ccccc2oc1=O)C(=O)OCC (centres unmarked)
3. CCNC(=O)CC[C@@H](NC(=O)c1cc2cc(Cl)ccc2oc1=O)C(=O)OCC

1. > 4.00
2. > 3.92
3. > 4.00

Sample `CCNC(=O)CC[C@@H](NC(=O)c1cc2cc(Br)cc(Br)c2oc1=O)C(=O)OCC` — what was its pIC50?
> 4.00
